Attribution: patent US20220119501A1

target: S1 subunit polypeptide of SARS-CoV-2 spike protein (isolate 2019-nCoV, WIV4) (SARS-CoV-2 (isolate 2019-nCoV, WIV4), UniProt P0DTC2 16-685); experiment: phage ELISA on SARS-CoV-2 spike S1 (FIG. 1)

binder	binding result
anti-S1 (SARS-CoV-2) scFv clone #13 (scFv, also called phage clone #13) scFv: QSVLTQPPSASGTPGQRVTISCSGSSSNIGSNYVYWYQQLPGTAPKLLIYRNNQRPSGVPDRFSGSKSGTSASLAISGLRSEDEADYYCAAWDDSLSGPNYVFGTGTKVTVLGSRGGGGSGGGGSGGGGSLEMAQVQLVQSGAEVKKPGSSVKVSCKASGGTFSSYAISWVRQAPGQGLEWMGWISGYNGNTNYAQKLQGRVTMTTDTSTSTAYMELRSLRSDDTAVYYCARTGWSKGEKVTTWGEWFYVDYWGQGTLVTVSSTSGQAGQ	binds
anti-S1 (SARS-CoV-2) scFv clone #15 (scFv, also called phage clone #15) scFv: QSVLTQPPSVSEAPRQRVTISCSGSSSNIGNNAVNWYQQLPGKAPKLLIYFNDVQSSGVSDRFSGSKSGTSASLAISGLQSEDEADYYCAAWDDSLNAVLFGGGTKLTVLGSRGGGGSGGGGSGGGGSLEMAEVQLVQSGAEVKKPGASVKVSCKASGYTFTGYYMHWVRQAPGQGLEWMGRINPNSGGTDYARKFRGRVTMTRDTSISTAYMELSRLTSDDTAMYYCARGYGDDWGQGTLVTVSSTSGQAGQ	binds
anti-S1 (SARS-CoV-2) scFv clone #19 (scFv, also called phage clone #19) scFv: QSALTQPASVSGSPGQSITISCTGTSSDVGGYNYVSWYQQHPGKVPKLMIYEVSNRPSGVSNRFSGSKSGNTASLTISGLQAEDEADYYCSSYTSGDTLVFGGGTKVTVLGSRGGGGSGGGGSGGGGSLEMAELQLVESGGGVVQPGRSPRLSCAASGFTFSNYPMHWVRQAPGKGLEWVAVISYDGNHKYYADSLEGRFSISRDNSKNTLYLQMNSLTAADTAVYYCARGGGMGGLDSWGQGTLVTVSSTSGQAGQ	binds
